Tested on: 171881-019-R-J1-PDC tumor spheroids, viability
Assay Text: Anticancer human tumor 171881-019-R-J1-PDC patient-derived invasive breast carcinoma cell line growth inhibition [GQUAD]
Condition Parameters: second compound 0.316 µM; first compound 1 µM; active compounds read low; spheroids with HUVEC and MSC
Source text: DNA G-quadruplex Stabilizer Agents in Combinations in Complex Spheroids A high-throughput screen of multi-cell type tumor spheroids was designed to identify active combinations of DNA G-quadruplex stabilizer agents and targeted small molecules. […] Compounds. […] If the clinical Cmax for an agent had not been determined, the highest concentration tested was 10 microM. […]
Attribute Measured: viability, T/C

// known answers, use as guide
compound="C=CCn1c(=O)c2cnc(Nc3ccc(N4CCN(C)CC4)cc3)nc2n1-c1cccc(C(C)(C)O)n1 + CN(C)c1ccc(Nc2c3ccc(NC(=O)CCN4CCCC4)cc3nc3cc(NC(=O)CCN4CCCC4)ccc23)cc1" test_target="171881-019-R-J1-PDC tumor spheroids, viability" attribute_measured="viability, T/C" observed_measurement=15.2%
compound="Cc1cccc(N(C)C(=O)C2C(O)CCN2c2nc(C)cc(C(F)(F)F)c2C#N)c1 (stereo unspecified) + Cc1cnc(CNC(=O)c2c(=O)c3ccc(N4CCCN(C)CC4)nc3n3c2sc2ccccc23)cn1" test_target="171881-019-R-J1-PDC tumor spheroids, viability" attribute_measured="viability, T/C" observed_measurement=69.7%

I would be grateful if you could provide viability, T/C for each of the following entries.
1. O=c1[nH]cc(F)c(=O)[nH]1 + Cc1cnc(CNC(=O)c2c(=O)c3ccc(N4CCCN(C)CC4)nc3n3c2sc2ccccc23)cn1
2. CC1COCCN1c1cc(C2(S(C)(=N)=O)CC2)nc(-c2ccnc3[nH]ccc23)n1 (stereo unspecified) + Cc1[nH]c2ccc(F)cc2c1-c1nc2c3cccnc3c3ncccc3c2[nH]1
3. O=C(NO)c1cnc(N2CCN(S(=O)(=O)c3ccc4ccccc4c3)CC2)nc1 + CN(C)c1ccc(Nc2c3ccc(NC(=O)CCN4CCCC4)cc3nc3cc(NC(=O)CCN4CCCC4)ccc23)cc1

Reply:
["58.7%", "51.6%", "0.25%"]

###

Tested on: 171881-019-R-J1-PDC tumor spheroids, viability
Assay Text: Anticancer human tumor 171881-019-R-J1-PDC cell line growth inhibition [GQUAD];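 note: spheroids exposed to compounds for 7 days; 100% = DMSO vehicle control viability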
Condition Parameters: second compound 0.316 µM; first compound 0.1 µM; active compounds read low; spheroids with HUVEC and MSC
Attribute Measured: viability, T/C (%)
Numbers only, in %.

molecule="O=C(c1cc(Cc2n[nH]c(=O)c3ccccc23)ccc1F)N1CCN(C(=O)C2CC2)CC1 + CN(C)c1ccc(Nc2c3ccc(NC(=O)CCN4CCCC4)cc3nc3cc(NC(=O)CCN4CCCC4)ccc23)cc1" unit_text=% observed_measurement=94.1
molecule="CC1COCCN1c1cc(C2(S(C)(=N)=O)CC2)nc(-c2ccnc3[nH]ccc23)n1 (stereo not given) + Cc1[nH]c2ccc(F)cc2c1-c1nc2c3cccnc3c3ncccc3c2[nH]1" unit_text=% observed_measurement=75.4
molecule="CC1COCCN1c1cc(-c2ccnn2C)c2ccnc(-c3ccn[nH]3)c2n1 (stereo not given) + Cc1[nH]c2ccc(F)cc2c1-c1nc2c3cccnc3c3ncccc3c2[nH]1" unit_text=% observed_measurement=31
molecule="CC(C)n1c(=O)n(C)c2cnc3cc(F)c(-c4ccc(OCCCN5CCCCC5)nc4)cc3c21 + Cc1cnc(CNC(=O)c2c(=O)c3ccc(N4CCCN(C)CC4)nc3n3c2sc2ccccc23)cn1" unit_text=% observed_measurement=65

# input for lookup
Ask: Provide value of viability, T/C for this record tested with 171881-019-R-J1-PDC tumor spheroids, viability: Cc1cccc(N(C)C(=O)C2C(O)CCN2c2nc(C)cc(C(F)(F)F)c2C#N)c1 (stereo not given) + CN(C)c1ccc(Nc2c3ccc(NC(=O)CCN4CCCC4)cc3nc3cc(NC(=O)CCN4CCCC4)ccc23)cc1
Reply: 93.5

###

Test system: 171881-019-R-J1-PDC tumor spheroids, viability
Assay Text: Anticancer human tumor 171881-019-R-J1-PDC cell line growth inhibition [GQUAD];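 note: spheroids exposed to compounds for 7 days; 100% = DMSO vehicle control viability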
Condition Parameters: second compound 0.316 µM; first compound 0.316 µM; active compounds read low; spheroids with HUVEC and MSC
Attribute Measured: viability, T/C (%)
Give bare numbers, in %.

compound="CC[C@@]1(O)C(=O)OCc2c1cc1n(c2=O)Cc2cc3c(CN(C)C)c(O)ccc3nc2-1 + CN(C)c1ccc(Nc2c3ccc(NC(=O)CCN4CCCC4)cc3nc3cc(NC(=O)CCN4CCCC4)ccc23)cc1" attribute_measured="viability, T/C" observed_measurement=42.4

// each listed compound needs a value for viability, T/C
1. C=CCn1c(=O)c2cnc(Nc3ccc(N4CCN(C)CC4)cc3)nc2n1-c1cccc(C(C)(C)O)n1 + Cc1cnc(CNC(=O)c2c(=O)c3ccc(N4CCCN(C)CC4)nc3n3c2sc2ccccc23)cn1
2. C=CC(=O)N1CCN(c2nc(=O)n(-c3c(C)ccnc3C(C)C)c3nc(-c4c(O)cccc4F)c(F)cc23)C(C)C1 (stereo not given) + CN(C)c1ccc(Nc2c3ccc(NC(=O)CCN4CCCC4)cc3nc3cc(NC(=O)CCN4CCCC4)ccc23)cc1
3. CC[C@@]1(O)C(=O)OCc2c1cc1n(c2=O)Cc2cc3c(CN(C)C)c(O)ccc3nc2-1 + Cc1cnc(CNC(=O)c2c(=O)c3ccc(N4CCCN(C)CC4)nc3n3c2sc2ccccc23)cn1
4. COc1cc(C2c3cc4c(cc3C(OC3OC5COC(C)OC5C(O)C3O)C3COC(=O)C23)OCO4)cc(OC)c1O (stereo not given) + Cc1[nH]c2ccc(F)cc2c1-c1nc2c3cccnc3c3ncccc3c2[nH]1
5. Nc1ccn(C2OC(CO)C(O)C2(F)F)c(=O)n1 (stereo not given) + Cc1[nH]c2ccc(F)cc2c1-c1nc2c3cccnc3c3ncccc3c2[nH]1

Reply:
55.7
69.8
50.9
72.8
35.7

Parameter requested: viability, T/C. Apply to each item below.
1. CC(=O)O[C@H]1C(=O)[C@@]2(C)[C@H]([C@H](OC(=O)c3ccccc3)[C@]3(O)C[C@H](OC(=O)[C@H](O)[C@@H](NC(=O)c4ccccc4)c4ccccc4)C(C)=C1C3(C)C)[C@]1(OC(C)=O)CO[C@@H]1C[C@@H]2O + Cc1cnc(CNC(=O)c2c(=O)c3ccc(N4CCCN(C)CC4)nc3n3c2sc2ccccc23)cn1
2. C#Cc1c(F)ccc2cc(O)cc(-c3ncc4c(N5CC6CCC(C5)N6)nc(OCC56CCCN5CC(F)C6)nc4c3F)c12 (stereo not given) + Cc1cnc(CNC(=O)c2c(=O)c3ccc(N4CCCN(C)CC4)nc3n3c2sc2ccccc23)cn1
3. Nc1ccn(C2OC(CO)C(O)C2(F)F)c(=O)n1 (stereo not given) + CN(C)c1ccc(Nc2c3ccc(NC(=O)CCN4CCCC4)cc3nc3cc(NC(=O)CCN4CCCC4)ccc23)cc1
4. Cn1ncnc1[C@H]1c2n[nH]c(=O)c3cc(F)cc(c23)N[C@@H]1c1ccc(F)cc1 + Cc1[nH]c2ccc(F)cc2c1-c1nc2c3cccnc3c3ncccc3c2[nH]1

Reply:
1: 39.5; 2: 51.7; 3: 39.9; 4: 82.4

###

Tested on: 171881-019-R-J1-PDC tumor spheroids, viability
Assay Text: Anticancer human tumor 171881-019-R-J1-PDC cell line growth inhibition [GQUAD];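 note: spheroids exposed to compounds for 7 days; 100% = DMSO vehicle control viability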
Condition Parameters: second compound 0.316 µM; first compound 10 µM; active compounds read low; spheroids with HUVEC and MSC
Provide the reported viability, T/C of each item.
Give bare numbers, in %.

compound="C=CCn1c(=O)c2cnc(Nc3ccc(N4CCN(C)CC4)cc3)nc2n1-c1cccc(C(C)(C)O)n1 + Cc1[nH]c2ccc(F)cc2c1-c1nc2c3cccnc3c3ncccc3c2[nH]1" test_target="171881-019-R-J1-PDC tumor spheroids, viability" attribute_measured="viability, T/C" observed_measurement=25
compound="COc1ccc([C@@H](O)c2cc(-c3ncnc4cc(N5CCOCC5)ccc34)c(F)cc2Cl)nn1 + Cc1[nH]c2ccc(F)cc2c1-c1nc2c3cccnc3c3ncccc3c2[nH]1" test_target="171881-019-R-J1-PDC tumor spheroids, viability" attribute_measured="viability, T/C" observed_measurement=5.95
compound="COc1ccc([C@@H](O)c2cc(-c3ncnc4cc(N5CCOCC5)ccc34)c(F)cc2Cl)nn1 + CN(C)c1ccc(Nc2c3ccc(NC(=O)CCN4CCCC4)cc3nc3cc(NC(=O)CCN4CCCC4)ccc23)cc1" test_target="171881-019-R-J1-PDC tumor spheroids, viability" attribute_measured="viability, T/C" observed_measurement=0.9
compound="C=CCn1c(=O)c2cnc(Nc3ccc(N4CCN(C)CC4)cc3)nc2n1-c1cccc(C(C)(C)O)n1 + CN(C)c1ccc(Nc2c3ccc(NC(=O)CCN4CCCC4)cc3nc3cc(NC(=O)CCN4CCCC4)ccc23)cc1" test_target="171881-019-R-J1-PDC tumor spheroids, viability" attribute_measured="viability, T/C" observed_measurement=9.97

Okay, here is my list. What is viability, T/C for each of these?
1. Cc1cccc(N(C)C(=O)C2C(O)CCN2c2nc(C)cc(C(F)(F)F)c2C#N)c1 (stereo unspecified) + Cc1[nH]c2ccc(F)cc2c1-c1nc2c3cccnc3c3ncccc3c2[nH]1
2. C=CCn1c(=O)c2cnc(Nc3ccc(N4CCN(C)CC4)cc3)nc2n1-c1cccc(C(C)(C)O)n1 + Cc1cnc(CNC(=O)c2c(=O)c3ccc(N4CCCN(C)CC4)nc3n3c2sc2ccccc23)cn1
3. Nc1ccn(C2OC(CO)C(O)C2(F)F)c(=O)n1 (stereo unspecified) + Cc1cnc(CNC(=O)c2c(=O)c3ccc(N4CCCN(C)CC4)nc3n3c2sc2ccccc23)cn1
4. C=CC(=O)N1CCN(c2nc(=O)n(-c3c(C)ccnc3C(C)C)c3nc(-c4c(O)cccc4F)c(F)cc23)C(C)C1 (stereo unspecified) + Cc1cnc(CNC(=O)c2c(=O)c3ccc(N4CCCN(C)CC4)nc3n3c2sc2ccccc23)cn1
5. COc1cccc2c1C(=O)c1c(O)c3c(c(O)c1C2=O)CC(O)(C(=O)CO)CC3OC1CC(N)C(O)C(C)O1 (stereo unspecified) + Cc1[nH]c2ccc(F)cc2c1-c1nc2c3cccnc3c3ncccc3c2[nH]1
6. C#Cc1c(F)ccc2cc(O)cc(-c3ncc4c(N5CC6CCC(C5)N6)nc(OCC56CCCN5CC(F)C6)nc4c3F)c12 (stereo unspecified) + Cc1cnc(CNC(=O)c2c(=O)c3ccc(N4CCCN(C)CC4)nc3n3c2sc2ccccc23)cn1
7. COc1cc(C2c3cc4c(cc3C(OC3OC5COC(C)OC5C(O)C3O)C3COC(=O)C23)OCO4)cc(OC)c1O (stereo unspecified) + Cc1cnc(CNC(=O)c2c(=O)c3ccc(N4CCCN(C)CC4)nc3n3c2sc2ccccc23)cn1

Reply:
1. 80.7
2. 24.8
3. 34.7
4. 63.4
5. 0.5
6. 32.3
7. 18.1
